B1: ZNF207 (parent)
chain: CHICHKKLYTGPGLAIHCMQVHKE

- Variants of: B1
- Protocol notes: protein stability index of a GFP-peptide fusion (GPS, HEK-293T) (PSI 1-6); higher = more stable;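 note: lentivirally expressed fusions sorted by FACS into six bins by GFP to DsRed ratio, PSI derived from sequencing read proportions per bin multiplied by bin number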
- Run conditions: c terminus: a fixed tail appended
Outcome label depends on protein stability index relative to 3: at/above gives rule met, below gives rule not met.

>>> class_label("P12Y")
"rule met"
>>> class_label("I3Y")
"rule met"
>>> class_label("H2S")
"rule not met"
>>> class_label("C18G")
"rule not met"
>>> class_label("K7R")
"rule met"
>>> class_label("P12E")
"rule met"
>>> class_label("H2Q")
"rule met"
>>> class_label("G13R")
"rule not met"
>>> class_label("I16T")
"rule met"
>>> class_label("C18H")
"rule not met"
>>> class_label("L8A")
"rule not met"
>>> class_label("T10V")
"rule met"
>>> class_label("K6Q")
"rule met"
>>> class_label("T10P")
"rule met"
>>> class_label("Q20L")
"rule met"
>>> class_label("I3M")
"rule not met"
>>> class_label("L14E")
"rule met"
>>> class_label("H22V")
"rule not met"
>>> class_label("I3E")
"rule not met"
>>> class_label("K7W")
"rule met"
>>> class_label("I3F")
"rule not met"
>>> class_label("L8C")
"rule met"
>>> class_label("C4D")
"rule not met"
>>> class_label("H17G")
"rule not met"
>>> class_label("G11C")
"rule not met"
>>> class_label("G13W")
"rule not met"
>>> class_label("Q20C")
"rule met"
>>> class_label("K23I")
"rule not met"
>>> class_label("L14F")
"rule not met"
>>> class_label("I16W")
"rule met"
>>> class_label("A15I")
"rule not met"
>>> class_label("K6R")
"rule met"
>>> class_label("H5E")
"rule met"
>>> class_label("H5Q")
"rule not met"
>>> class_label("H17R")
"rule not met"
>>> class_label("K7M")
"rule met"
>>> class_label("K23Q")
"rule met"
>>> class_label("H5N")
"rule met"
>>> class_label("C4H")
"rule not met"
>>> class_label("I16V")
"rule met"
>>> class_label("H17E")
"rule met"
>>> class_label("P12R")
"rule met"
>>> class_label("C18P")
"rule not met"
>>> class_label("C4P")
"rule not met"
>>> class_label("I16R")
"rule not met"
>>> class_label("I3K")
"rule met"
>>> class_label("H2C")
"rule not met"
>>> class_label("T10R")
"rule not met"
>>> class_label("Y9F")
"rule met"
>>> class_label("G13T")
"rule met"
>>> class_label("Y9G")
"rule met"
>>> class_label("Q20I")
"rule met"
>>> class_label("H2P")
"rule not met"
>>> class_label("H2L")
"rule not met"
>>> class_label("C1H")
"rule not met"
>>> class_label("Y9D")
"rule met"
>>> class_label("Q20T")
"rule met"
>>> class_label("Q20N")
"rule met"
>>> class_label("K23N")
"rule met"
>>> class_label("Q20Y")
"rule met"
>>> class_label("H22W")
"rule not met"
>>> class_label("A15L")
"rule not met"
>>> class_label("E24P")
"rule not met"
>>> class_label("H17L")
"rule not met"
>>> class_label("H22L")
"rule not met"
>>> class_label("G11V")
"rule not met"
>>> class_label("L8D")
"rule met"
>>> class_label("I16F")
"rule met"
>>> class_label("H5D")
"rule met"
>>> class_label("H5F")
"rule met"
>>> class_label("G11Q")
"rule met"
>>> class_label("C4N")
"rule not met"
>>> class_label("V21D")
"rule met"
>>> class_label("L8S")
"rule not met"
>>> class_label("C18E")
"rule met"
>>> class_label("K6M")
"rule met"
>>> class_label("L14H")
"rule met"
>>> class_label("H5S")
"rule not met"
>>> class_label("A15D")
"rule met"
>>> class_label("A15E")
"rule met"
>>> class_label("G11H")
"rule not met"
>>> class_label("A15S")
"rule met"
>>> class_label("Q20P")
"rule not met"
>>> class_label("Q20M")
"rule met"
>>> class_label("I16D")
"rule met"
>>> class_label("K7P")
"rule not met"
>>> class_label("P12Q")
"rule met"
